These entries and their values trace back to the supplement of paper PMC7877785.

- method: self-splicing fitness, log relative to wild type (ln ratio); higher = more splicing; Tetrahymena group I intron in knt gene, E. coli kanamycin selection, DiMSum; sequences stand for … in CUCUCU…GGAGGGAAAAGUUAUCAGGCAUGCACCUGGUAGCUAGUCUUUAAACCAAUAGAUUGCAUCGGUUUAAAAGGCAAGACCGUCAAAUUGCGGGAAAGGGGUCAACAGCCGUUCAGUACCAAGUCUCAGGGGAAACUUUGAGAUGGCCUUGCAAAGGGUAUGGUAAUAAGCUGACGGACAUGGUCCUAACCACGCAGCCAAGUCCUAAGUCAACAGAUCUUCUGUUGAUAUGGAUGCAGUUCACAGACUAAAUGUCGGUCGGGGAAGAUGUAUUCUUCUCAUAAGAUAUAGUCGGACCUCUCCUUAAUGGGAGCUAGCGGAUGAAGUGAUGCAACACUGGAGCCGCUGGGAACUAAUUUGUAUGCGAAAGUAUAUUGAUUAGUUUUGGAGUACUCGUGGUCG;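 further: selection with 25 µg/mL kanamycin versus none on LB agar overnight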
- condition set: 30 °C
measurement type: self-splicing fitness (ln)

As a guide, the following entries are already answered.
CGUUAGCAAUAUUACGUUUG    -1.01
GUUAAGCAAUAUUACGGGAG    -3.17

Provide only the value of recorded self-splicing fitness (ln) for CUGGAGCAAUAUUACGGACA -3.7

Give reported self-splicing fitness (ln) value for GACCAGCAAUAUUACGUGAA -0.0938

Quick one: give measured self-splicing fitness (ln) for GCAGAGCAAUAUUACGCGGG -3.58

Identify measured self-splicing fitness (ln) corresponding to ACGGAGCAAUAUUACGUUUA -3.14

Identify self-splicing fitness (ln) associated with the sequence CGGAAGCAAUAUUACGGUAA -3.11

Input GCACAGCAAUAUUACGCCGA , output reported self-splicing fitness (ln). -2.19

Item UUUGAGCAAUAUUACGAUUA : provide self-splicing fitness (ln) -2.13

Entry ACACAGCAAUAUUACGGCCU needs its self-splicing fitness (ln) filled in; supply it. -0.094
